Target: SRSF1 RRM1+2 (UniProt Q07955 1-195)
Sequence (Q07955 1-195): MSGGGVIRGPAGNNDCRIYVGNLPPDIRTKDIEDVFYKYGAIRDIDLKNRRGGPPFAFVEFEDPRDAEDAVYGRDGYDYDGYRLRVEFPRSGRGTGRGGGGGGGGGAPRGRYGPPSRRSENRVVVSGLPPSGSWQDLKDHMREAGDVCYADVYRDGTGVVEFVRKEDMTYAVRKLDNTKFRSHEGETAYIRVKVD
Assay: fluorescence polarization
Quantity Kind: pKd
# reply with the number alone; pKd is -log10 of concentration in mol/L

[Q] Name the recorded pKd for AGAAGAACAGAAGAAC (ssRNA) [FAM-S2 (A3 2n)] .
[A] 7.25
